- Assay Overview: NCI Yeast Anticancer Drug Screen. Data for the sgs1 mgt1 strain (AID 161);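 further: 0% = growth of cultures given vehicle only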
- Condition Parameters: S. cerevisiae sgs1 mgt1 strain, at 50.0 µM, stronger effect = higher value
This is part of a sample that, as a whole, favours compounds with a hit. Of some 79,000 tested, about 15% had one in any assay.
Item-by-item account of growth inhibition
The figure you give is taken to be in %; do not add the unit.

Please review the following examples before continuing.
Compound	growth inhibition, %
O=[N+]([O-])c1ccc(Oc2ccc(Cl)cc2)cc1	14.6
CSc1nc(N)cc(Cl)n1	-12.4
CCc1c2c(nc3ccc(O)cc13)-c1cc3c(c(=O)n1C2)COC(=O)[C@]3(O)CC	-5.9
NCCN.O=C([O-])CN1CCOCC1.[OH-].[Pt+4]	-29.9
O=C(NCCc1ccccc1)c1ccc2ccccc2n1	63.7
C=CSC(=S)Sc1ccccc1	-1.15

Task item: Give me measured growth inhibition, please, for this compound: CC1=[N+]([O-])c2ccccc2C(=O)C1=O
Reply: 35.3

Task item: Return reported growth inhibition. Input compound: CN(C)C=NCCN1CCOCC1
Reply: 26.8

Task item: Tell me growth inhibition reported for OCCCCC(c1ccc(O)cc1)c1ccc(O)cc1
Reply: 8.8

Task item: Check the records and state growth inhibition for CN(C)C(=S)c1cccc2ccccc12
Reply: -1.95

Task item: Report growth inhibition, nothing else, for this compound: CSc1nc2nc[nH]c(=O)c2[nH]1
Reply: -5.75

Task item: Kindly indicate its recorded growth inhibition. Item: COc1ccc(CN2C(=O)C(=O)N(C)C2=O)c2ccccc12
Reply: 13.8

Task item: Look up growth inhibition of O=C(O)Cc1ccc(N2N=C(c3ccccc3)CC2=O)cc1 and report it.
Reply: -13.6

Task item: Return value of growth inhibition for input CC(=O)Nc1ccc(C2SCc3nc4ccccc4n32)cc1 (stereo not drawn) , no commentary.
Reply: -32.5

###

- Assay Overview: NCI Yeast Anticancer Drug Screen. Data for the bub3 strain (AID 167)
- Condition Parameters: S. cerevisiae bub3 mutant strain, at 50.0 µM, stronger effect = higher value
About 79,000 compounds went through this panel and 15% of them were active in at least one assay; those are over-represented in the sample as a whole.
Parameter Measured: growth inhibition (%)
Express your answer in %, writing the number without its unit.

Molecule	Parameter Measured	Reported
CC1(C)CC(O)CC(C)(C)N1.CC1(C)CC(O)CC(C)(C)N1.CC1(C)CC(O)CC(C)(C)N1.CC1(C)CC(O)CC(C)(C)N1.Cl.[Ti]	growth inhibition	26.1
CN(CCOc1ccccc1)Cc1ccccc1	growth inhibition	40.1
CCN(CC)CCOc1ccccc1C(C)C	growth inhibition	4
Cc1ccsc1C(=O)C(CC(=O)c1cccs1)c1ccsc1 (stereo unspecified)	growth inhibition	25.4
Cc1c2ccn3c(=O)c4ccccc4cc3c2c(C)c2c1[nH]c1ccccc12	growth inhibition	21.8
O=C1OC(=O)C2CCC12 (stereo unspecified)	growth inhibition	12.5

Task item: Name the recorded growth inhibition of the item CC(=O)CC(=O)c1cc(C(C)=O)c(O)c(C(C)=O)c1 in your answer.
Reply: -11.1

Task item: Quick one: give measured growth inhibition for O=Nc1c(-c2ccccc2)nnc(-c2ccccc2)c1N=O
Reply: 34.7

Task item: Using known records, supply growth inhibition for CCCCC(CC)CCC(O)C(O)C(C)C (stereo unspecified) (tested in a mixture with another compound)
Reply: -8.95

Task item: Quote growth inhibition reported for COc1cccc2c1ccc1nonc12 please.
Reply: -19.1

Task item: Report growth inhibition for C[N+](C)([O-])CCCNc1ccnc2cccc([N+](=O)[O-])c12
Reply: 9.95

These data points were gathered from PubChem BioAssay (NCI).
